Origin of values: ChEMBL document CHEMBL3217646

Test system: Bacillus subtilis
Assay: Increase in bacterial membrane permeability in Bacillus subtilis subsp. subtilis str. 168 at 1 times MIC pre-treated for 5 mins and measured 30 mins post dye addition by propidium iodide dye based flow cytometry
Assay type: functional, organism-based
Calls of active or inactive are those of the source. The rule behind the calls is not given here.
Possible outcomes: 1 (yes) (active), 0 (no) (inactive)

>>> print(df.to_string())
                                   compound  discrete_label
0         O=C/C=C/c1ccccc1 [CINNAMALDEHYDE]         1 (yes)
1  CC(C)c1c(O)ccc2c1CC[C@H]1C(C)(C)CCC[C@]21C [TOTAROL]         1 (yes)
2  C[n+]1cc2c3c(ccc2c2ccc4cc5c(cc4c21)OCO5)OCO3 [SANGUINARIUM]         1 (yes)
3   NC(=O)c1c(F)ccc(OCc2nc3cc(Cl)cnc3s2)c1F          0 (no)
4  CO/N=C(\C(=O)N[C@@H]1C(=O)N2C(C(=O)O)=C(COC(N)=O)CS[C@H]12)c1ccco1 [CEFUROXIME]          0 (no)
5  N#CC(C#N)=NNc1cccc(Cl)c1 [CARBONYL CYANIDE M-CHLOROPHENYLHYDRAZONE]          0 (no)
6  Oc1ccc(Cl)cc1Cc1cc(Cl)cc(Cc2cc(Cl)ccc2O)c1O          0 (no)

====

Test system: Bacillus subtilis
Assay: Induction of transmembrane potential loss in Bacillus subtilis subsp. subtilis str. 168 at 1 times MIC pre-treated for 5 mins and measured 15 mins post dye addition by DiOC2 dye based flow cytometry
Assay type: functional, organism-based
Activity calls are given as the source filed them. No cut-off for these calls is given here.
Outcome codes: active, inactive

In [3]: df
Out[3]:
                                   compound  discrete_label
0   NC(=O)c1c(F)ccc(OCc2nc3cc(Cl)cnc3s2)c1F        inactive
1  CC(C)c1c(O)ccc2c1CC[C@H]1C(C)(C)CCC[C@]21C          active
2  C[n+]1cc2c3c(ccc2c2ccc4cc5c(cc4c21)OCO5)OCO3          active
3  Oc1ccc(Cl)cc1Cc1cc(Cl)cc(Cc2cc(Cl)ccc2O)c1O          active
4  COC(=O)CC1Cc2cc3cc(OC)c(-c4c(OC)cc5cc6c(c(O)c5c4O)C(=O)OC(CC(=O)OC)C6)c(O)c3c(O)c2C(=O)O1 (stereo unspecified)        inactive
5                          O=C/C=C/c1ccccc1          active

====

System: Bacillus subtilis
Assay: Induction of membrane associated proteins mislocalization in Bacillus subtilis subsp. subtilis str. 168 assessed as reduction in GFP-MinD protein localization by fluorescence assay
Format: functional, organism-based
Activity calls are given as the source filed them. No cut-off for these calls is given here.
Labels: active, inactive

                                   compound  discrete_label
0  COC(=O)CC1Cc2cc3cc(OC)c(-c4c(OC)cc5cc6c(c(O)c5c4O)C(=O)OC(CC(=O)OC)C6)c(O)c3c(O)c2C(=O)O1 (configuration not stated)          active
1  CC(C)c1c(O)ccc2c1CC[C@H]1C(C)(C)CCC[C@]21C          active
2  CO/N=C(\C(=O)N[C@@H]1C(=O)N2C(C(=O)O)=C(COC(N)=O)CS[C@H]12)c1ccco1        inactive
3  Oc1ccc(Cl)cc1Cc1cc(Cl)cc(Cc2cc(Cl)ccc2O)c1O          active
4  N#CC(C#N)=NNc1cccc(Cl)c1 [CARBONYL CYANIDE M-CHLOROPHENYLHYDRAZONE]          active
5   NC(=O)c1c(F)ccc(OCc2nc3cc(Cl)cnc3s2)c1F        inactive
6                          O=C/C=C/c1ccccc1          active
